Data origin: ChEMBL document CHEMBL4428038

Test system: Plasmodium falciparum
Assay info: Intrinsic antimalarial activity against chloroquine/artemisinin-resistant Plasmodium falciparum ARS272 harboring CRT K76T mutant assessed as reduction in parasite viability at 500 nM
Format: functional, organism-based
Active and inactive are the calls of the source. No cut-off for these calls is given here.
Result type: Activity

1) N#CC(CCN1CCN(c2ccc(F)cc2)CC1)(c1ccccc1)c1ccccc1 inactive
2) NCC(CCN1CCCCC1)(c1ccccc1)c1ccccc1 inactive
3) Ic1ccccc1CNCC(c1ccccc1)c1ccccc1 inactive

----------
System: Chloroquine resistance transporter (Plasmodium falciparum), Q9N623 [K76T]
Sequence (Q9N623 whole entry K76T): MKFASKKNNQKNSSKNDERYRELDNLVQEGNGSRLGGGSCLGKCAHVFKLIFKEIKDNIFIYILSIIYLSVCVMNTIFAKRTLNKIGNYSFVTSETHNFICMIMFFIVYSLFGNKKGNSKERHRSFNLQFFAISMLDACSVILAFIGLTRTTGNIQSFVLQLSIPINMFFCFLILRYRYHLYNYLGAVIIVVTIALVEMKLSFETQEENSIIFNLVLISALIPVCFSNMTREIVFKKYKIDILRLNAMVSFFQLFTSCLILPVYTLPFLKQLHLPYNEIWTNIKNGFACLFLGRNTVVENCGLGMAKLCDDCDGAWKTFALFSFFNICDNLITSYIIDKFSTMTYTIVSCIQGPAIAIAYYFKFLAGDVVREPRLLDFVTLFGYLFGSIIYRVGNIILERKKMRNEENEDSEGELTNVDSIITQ
Assay info: Inhibition of CRT K76T mutant in chloroquine/artemisinin-resistant Plasmodium falciparum ARS272 assessed as reversal of chloroquine resistance by measuring reduction in chloroquine IC50 at 500 nM relative to chloroquine alone
I'd appreciate it if you could label each record using Ratio IC50 and these ranges: low (below 0.7), middle (0.7 to below 0.9), high (0.9 or more)

Study these solved cases before continuing.
Molecule	Category label
Clc1ccc2c(c1)C(N1CCNCC1)Cc1ccccc1S2 (stereo unspecified)	middle
NCC(CCN1CCC(O)CC1)(c1ccccc1)c1ccccc1	high
CN(C)C(=O)C(CCN1CCC(O)(c2ccc(Cl)cc2)CC1)(c1ccccc1)c1ccccc1 [LOPERAMIDE]	middle
CN1CCN(C2Cc3ccccc3Sc3ccc(Cl)cc32)CC1 (stereo unspecified) [CLOROTEPINE]	high
c1ccc(CN[C@@H]2C3CCN(CC3)[C@@H]2Cc2ccccc2)cc1 (relative stereo)	low
NCC(c1ccccc1)c1ccccc1	low

State the class of the molecule shown: NC(=O)C(CCN1CCC(O)(c2ccc(Cl)cc2)CC1)(c1ccccc1)c1ccccc1
high

State the class of the molecule shown: Ic1ccccc1CN[C@@H]1C2CCN(CC2)[C@@H]1C(c1ccccc1)c1ccccc1
low

State the class of the molecule shown: N[C@@H]1C2CCN(CC2)[C@@H]1C(c1ccccc1)c1ccccc1 (relative stereo)
high

----------
Assay info: Therapeutic index, ratio of IC50 for TAMH to EC50 for chloroquine-resistant Plasmodium falciparum K1 isolate MRA-159 CRT CVIET haplotype mutant
Assay type: toxicity
Recorded conditions: mouse, TAMH cells; read-out: Ratio IC50/EC50
Result type: selectivity ratio

# count of solved cases: 2
Molecule	Value reported
NC(=O)C(CCN1CCC(O)(c2ccc(Cl)cc2)CC1)(c1ccccc1)c1ccccc1	210
c1ccc(CN[C@@H]2C3CCN(CC3)[C@@H]2Cc2ccccc2)cc1 (relative stereo)	> 588

Supply reported selectivity ratio belonging to this molecule: Ic1ccccc1CN[C@@H]1C2CCN(CC2)[C@@H]1C(c1ccccc1)c1ccccc1
175

----------
Test system: Plasmodium falciparum
Assay info: Intrinsic antimalarial activity against chloroquine/artemisinin-resistant Plasmodium falciparum ARS272 harboring CRT K76T mutant assessed as reduction in parasite viability at 500 nM
Type: functional, organism-based
Activity calls are given as the source filed them. No cut-off for these calls is given here.
Result type: Activity

# count of solved cases: 5
Molecule	Value reported
CN(C)C(=O)C(CCN1CCC(O)(c2ccc(Cl)cc2)CC1)(c1ccccc1)c1ccccc1 [LOPERAMIDE]	inactive
CC(C)(C)OC(=O)NC1CCN(CCC(C#N)(c2ccccc2)c2ccccc2)CC1	inactive
NCC(CCN1CCC(N)CC1)(c1ccccc1)c1ccccc1	inactive
O=C1C2CCN(CC2)C1C(c1ccccc1)c1ccccc1 (stereo unspecified)	inactive
c1ccc(CN[C@@H]2C3CCN(CC3)[C@@H]2Cc2ccccc2)cc1 (relative stereo)	inactive

Continue with the molecule presented below.
Supply reported Activity belonging to this molecule: NCC(c1ccccc1)c1ccccc1
inactive

----------
// values below are reported Ratio IC50
Test system: Chloroquine resistance transporter (Plasmodium falciparum), Q9N623 [K76T]
Assay info: Inhibition of CRT K76T mutant in chloroquine-resistant Plasmodium falciparum Dd2 isolate MRA-156 assessed as reversal of chloroquine resistance by measuring reduction in chloroquine IC50 at 500 nM relative to chloroquine alone

Compound	System	Value reported
CN1CCN(C2Cc3ccccc3Sc3ccc(Cl)cc32)CC1 (stereo unspecified) [CLOROTEPINE]	Chloroquine resistance transporter (Plasmodium falciparum), Q9N623 [K76T]	0.98
c1ccc2c(c1)CC(N1CCNCC1)c1ccccc1S2 (stereo unspecified)	Chloroquine resistance transporter (Plasmodium falciparum), Q9N623 [K76T]	0.81
NCC(CCN1CCC(O)CC1)(c1ccccc1)c1ccccc1	Chloroquine resistance transporter (Plasmodium falciparum), Q9N623 [K76T]	0.91
CN(C)C(=O)C(CCN1CCC(O)(c2ccc(Cl)cc2)CC1)(c1ccccc1)c1ccccc1 [LOPERAMIDE]	Chloroquine resistance transporter (Plasmodium falciparum), Q9N623 [K76T]	0.82
Clc1ccc2c(c1)C(N1CCNCC1)Cc1ccccc1S2 (stereo unspecified)	Chloroquine resistance transporter (Plasmodium falciparum), Q9N623 [K76T]	0.83

Continue with the compound presented below.
Supply reported Ratio IC50 belonging to this compound: N[C@@H]1C2CCN(CC2)[C@@H]1C(c1ccccc1)c1ccccc1 (relative stereo)
0.94

----------
Assay info: Resistance index, ratio of chloroquine IC50 for chloroquine-resistant Plasmodium falciparum K1 isolate MRA-159 CRT CVIET haplotype mutant to chloroquine IC50 for chloroquine-sensitive Plasmodium falciparum 3D7 isolate MRA-102 at 500 nM
Result type: Ratio IC50

Molecule	Ratio IC50
Ic1ccccc1CN[C@@H]1C2CCN(CC2)[C@@H]1C(c1ccccc1)c1ccccc1	5
NCC(c1ccccc1)c1ccccc1	8.4
CN(C)C(=O)C(CCN1CCC(O)(c2ccc(Cl)cc2)CC1)(c1ccccc1)c1ccccc1 [LOPERAMIDE]	14
Clc1ccc2c(c1)C(N1CCNCC1)Cc1ccccc1S2 (stereo unspecified)	12.4
c1ccc(CN[C@@H]2C3CCN(CC3)[C@@H]2Cc2ccccc2)cc1 (relative stereo)	6.4
CN1CCN(C2Cc3ccccc3Sc3ccc(Cl)cc32)CC1 (stereo unspecified) [CLOROTEPINE]	18.1
N#CC(CCN1CCCCC1)(c1ccccc1)c1ccccc1	12.2
NCC(CCN1CCC(O)CC1)(c1ccccc1)c1ccccc1	13.4
N[C@@H]1C2CCN(CC2)[C@@H]1C(c1ccccc1)c1ccccc1 (relative stereo)	17.4
c1ccc2c(c1)CC(N1CCNCC1)c1ccccc1S2 (stereo unspecified)	9.3

Continue with the molecule presented below.
Supply reported Ratio IC50 belonging to this molecule: NC(=O)C(CCN1CCC(O)(c2ccc(Cl)cc2)CC1)(c1ccccc1)c1ccccc1
14.8

----------
Test system: Plasmodium falciparum 7G8
Assay info: Inhibition of CRT SVMNT haplotype mutant in intermediate chloroquine-resistant Plasmodium falciparum 7G8 isolate MRA-154 t assessed as reversal of chloroquine resistance by measuring reduction in chloroquine IC50 at 500 nM relative to chloroquine alone
Result type: Ratio IC50
Output: the number by itself.

Compound	System	Value reported
N[C@@H]1C2CCN(CC2)[C@@H]1C(c1ccccc1)c1ccccc1 (relative stereo)	Plasmodium falciparum 7G8	0.93
NC(=O)C(CCN1CCC(O)(c2ccc(Cl)cc2)CC1)(c1ccccc1)c1ccccc1	Plasmodium falciparum 7G8	1.25
Ic1ccccc1CN[C@@H]1C2CCN(CC2)[C@@H]1C(c1ccccc1)c1ccccc1	Plasmodium falciparum 7G8	0.59
CN(C)C(=O)C(CCN1CCC(O)(c2ccc(Cl)cc2)CC1)(c1ccccc1)c1ccccc1 [LOPERAMIDE]	Plasmodium falciparum 7G8	0.59
c1ccc2c(c1)CC(N1CCNCC1)c1ccccc1S2 (stereo unspecified)	Plasmodium falciparum 7G8	0.76
NCC(CCN1CCC(O)CC1)(c1ccccc1)c1ccccc1	Plasmodium falciparum 7G8	0.98
c1ccc(CN[C@@H]2C3CCN(CC3)[C@@H]2Cc2ccccc2)cc1 (relative stereo)	Plasmodium falciparum 7G8	0.8
NCC(c1ccccc1)c1ccccc1	Plasmodium falciparum 7G8	0.69
N#CC(CCN1CCCCC1)(c1ccccc1)c1ccccc1	Plasmodium falciparum 7G8	1
Clc1ccc2c(c1)C(N1CCNCC1)Cc1ccccc1S2 (stereo unspecified)	Plasmodium falciparum 7G8	0.88

Continue with the compound presented below.
Supply reported Ratio IC50 belonging to this compound: CN1CCN(C2Cc3ccccc3Sc3ccc(Cl)cc32)CC1 (stereo unspecified) [CLOROTEPINE]
1.12

----------
Test system: Chloroquine resistance transporter (Plasmodium falciparum), Q9N623 [K76T]
Assay info: Inhibition of CRT K76T mutant in chloroquine/artemisinin-resistant Plasmodium falciparum ARS233 assessed as reversal of chloroquine resistance by measuring reduction in chloroquine IC50 at 500 nM relative to chloroquine alone
Result type: Ratio IC50
Output: the number by itself.

# count of solved cases: 4
Molecule	System	Ratio IC50
CN1CCN(C2Cc3ccccc3Sc3ccc(Cl)cc32)CC1 (stereo not given) [CLOROTEPINE]	Chloroquine resistance transporter (Plasmodium falciparum), Q9N623 [K76T]	0.87
Clc1ccc2c(c1)C(N1CCNCC1)Cc1ccccc1S2 (stereo not given)	Chloroquine resistance transporter (Plasmodium falciparum), Q9N623 [K76T]	0.71
CN(C)C(=O)C(CCN1CCC(O)(c2ccc(Cl)cc2)CC1)(c1ccccc1)c1ccccc1 [LOPERAMIDE]	Chloroquine resistance transporter (Plasmodium falciparum), Q9N623 [K76T]	0.64
c1ccc(CN[C@@H]2C3CCN(CC3)[C@@H]2Cc2ccccc2)cc1 (relative stereo)	Chloroquine resistance transporter (Plasmodium falciparum), Q9N623 [K76T]	0.43

Continue with the molecule presented below.
Supply reported Ratio IC50 belonging to this molecule: NCC(c1ccccc1)c1ccccc1
0.53
